assay: Absorption in rats after intragastric administration of different crystal forms (plasma PK, LC/MS/MS); assay type: in vivo; details: SD, rat, plasma, po, 8 mg/kg
READOUT_KIND: half-life (h)

• CCOc1cc2ncnc(Nc3ccc(Oc4ccn5ncnc5c4)c(C)c3)c2cc1NC(=O)/C(F)=C/[C@H]1CCCN1C [Amorphous form] = 3.03

###

experiment: Absorption in rats after intragastric administration of different crystal forms (plasma PK, LC/MS/MS); assay type: in vivo; details: SD rats, 8 mg/kg
MRT overview
READOUT_KIND: MRT (h)

* CCOc1cc2ncnc(Nc3ccc(Oc4ccn5ncnc5c4)c(C)c3)c2cc1NC(=O)/C(F)=C/[C@H]1CCCN1C [Crystal form B] | 6.07
* CCOc1cc2ncnc(Nc3ccc(Oc4ccn5ncnc5c4)c(C)c3)c2cc1NC(=O)/C(F)=C/[C@H]1CCCN1C [Crystal form C] | 4.63
* CCOc1cc2ncnc(Nc3ccc(Oc4ccn5ncnc5c4)c(C)c3)c2cc1NC(=O)/C(F)=C/[C@H]1CCCN1C [Crystal form M] | 4.59
* CCOc1cc2ncnc(Nc3ccc(Oc4ccn5ncnc5c4)c(C)c3)c2cc1NC(=O)/C(F)=C/[C@H]1CCCN1C [Crystal form A] | 4.74

###

assay: Absorption in rats after intragastric administration of different crystal forms (plasma PK, LC/MS/MS); format: in vivo; conditions: SD rats, 8 mg/kg
AUCextra overview
READOUT_KIND: AUCextra

• CCOc1cc2ncnc(Nc3ccc(Oc4ccn5ncnc5c4)c(C)c3)c2cc1NC(=O)/C(F)=C/[C@H]1CCCN1C [Amorphous form] = 0.758 (h)*(ng/mL)
• CCOc1cc2ncnc(Nc3ccc(Oc4ccn5ncnc5c4)c(C)c3)c2cc1NC(=O)/C(F)=C/[C@H]1CCCN1C [Crystal form C] = 0.451 (h)*(ng/mL)
• CCOc1cc2ncnc(Nc3ccc(Oc4ccn5ncnc5c4)c(C)c3)c2cc1NC(=O)/C(F)=C/[C@H]1CCCN1C [Crystal form B] = 1.01 (h)*(ng/mL)
• CCOc1cc2ncnc(Nc3ccc(Oc4ccn5ncnc5c4)c(C)c3)c2cc1NC(=O)/C(F)=C/[C@H]1CCCN1C [Crystal form M] = 0.169 (h)*(ng/mL)
• CCOc1cc2ncnc(Nc3ccc(Oc4ccn5ncnc5c4)c(C)c3)c2cc1NC(=O)/C(F)=C/[C@H]1CCCN1C [Crystal form A] = 0.288 (h)*(ng/mL)

###

Tmax overview
experiment: Absorption in rats after intragastric administration of different crystal forms (plasma PK, LC/MS/MS); type: in vivo; conditions: SD rats, 8 mg/kg
READOUT_KIND: Tmax

• CCOc1cc2ncnc(Nc3ccc(Oc4ccn5ncnc5c4)c(C)c3)c2cc1NC(=O)/C(F)=C/[C@H]1CCCN1C [Amorphous form] = 6.00 h
• CCOc1cc2ncnc(Nc3ccc(Oc4ccn5ncnc5c4)c(C)c3)c2cc1NC(=O)/C(F)=C/[C@H]1CCCN1C [Crystal form C] = 2.00 h
• CCOc1cc2ncnc(Nc3ccc(Oc4ccn5ncnc5c4)c(C)c3)c2cc1NC(=O)/C(F)=C/[C@H]1CCCN1C [Crystal form A] = 2.00 h
• CCOc1cc2ncnc(Nc3ccc(Oc4ccn5ncnc5c4)c(C)c3)c2cc1NC(=O)/C(F)=C/[C@H]1CCCN1C [Crystal form M] = 2.00 h
• CCOc1cc2ncnc(Nc3ccc(Oc4ccn5ncnc5c4)c(C)c3)c2cc1NC(=O)/C(F)=C/[C@H]1CCCN1C [Crystal form B] = 6.00 h

Where do the numbers come from? From patent US20250163053A1.
